- Experimental system: D(1B) dopamine receptor (Homo sapiens) (UniProt P21918)
- Sequence (P21918 whole entry): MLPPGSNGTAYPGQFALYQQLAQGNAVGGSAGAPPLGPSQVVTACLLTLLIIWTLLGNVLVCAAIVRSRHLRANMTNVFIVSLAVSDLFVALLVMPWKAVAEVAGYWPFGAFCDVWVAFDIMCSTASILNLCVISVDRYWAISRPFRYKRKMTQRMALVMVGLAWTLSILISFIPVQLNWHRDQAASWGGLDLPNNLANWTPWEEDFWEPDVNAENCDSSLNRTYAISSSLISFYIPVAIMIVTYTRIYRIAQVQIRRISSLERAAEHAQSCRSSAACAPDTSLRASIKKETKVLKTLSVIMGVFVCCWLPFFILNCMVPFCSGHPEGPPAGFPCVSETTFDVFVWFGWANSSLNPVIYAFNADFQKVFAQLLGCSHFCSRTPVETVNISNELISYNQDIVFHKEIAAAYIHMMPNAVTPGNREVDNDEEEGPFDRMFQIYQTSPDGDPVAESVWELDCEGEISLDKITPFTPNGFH
- Details: Compound concentration 10 µM
- Description: PDSP Primary Binding target: DRD5 - Compounds are tested at 10 uM concentration, plate are incubated at room temperature in the dark for 90 minutes. Reaction are stopped by vacuum filtration onto 0.3% polyethyleneimine soaked filter mats using Filtermate harvester. Scintilation cocktail is then melted onto microwave-dried filters on a hot plate and the radio activity is counted in Microbia counter.
Reported property: inhibition (%)
Express the result in % but write the number alone.

Field: example entries. Status: answers known.
// map COc1ccc2[nH]cc(CCNC(C)=O)c2c1 to recorded inhibition (system: D(1B) dopamine receptor (Homo sapiens) (UniProt P21918))
6.12

Under D(1B) dopamine receptor (Homo sapiens) (UniProt P21918): inhibition value of COc1ccc(S(=O)(=O)c2cc(OC)ccc2S(=O)(=O)c2ccc([C@H](C)NS(C)(=O)=O)cc2)cc1 ?
14.2

# query: inhibition | item CCCCc1nc(Cl)c(CO)n1Cc1ccc(-c2ccccc2-c2nnn[nH]2)cc1 | system: D(1B) dopamine receptor (Homo sapiens) (UniProt P21918)
-1.67

What inhibition appears in the records for this compound with D(1B) dopamine receptor (Homo sapiens) (UniProt P21918)? Cc1csc(NC(=O)c2cc(F)cc(Oc3cncnc3)c2)n1
46

We now examine a further compound.
Query the reported inhibition for D(1B) dopamine receptor (Homo sapiens) (UniProt P21918); item: Cc1cc(C)cc(-c2cnc3cc(Cl)c(-c4cccc(O)c4)cc3c2OCCCN)c1
72.9

----------
- Experimental system: Beta-2 adrenergic receptor (Homo sapiens)
- Details: Compound concentration 10 µM; call rule not given here
Permitted responses: class 1 (active), class 0 (inactive)

Check out these entries, answers already filled in.
Hi, sorry to bother you, what did the test record for Cc1nnn(-c2ccc(-c3ccc(C4(C(=O)O)CC4)cc3)cc2)c1NC(=O)O[C@H](C)c1ccccc1 ?
class 0

Which outcome was assigned to CC(C)(N)C(=O)N[C@H](COCc1ccccc1)C(=O)N1CCC2(CC1)CN(S(C)(=O)=O)c1ccccc12 in this test?
class 0

Give the logged outcome of this assay for the following compound: Oc1ccc2c3c1O[C@H]1c4[nH]c5c(c4C[C@@]4(O)[C@@H](C2)N(CC2CC2)CC[C@]314)C[C@@]1(O)[C@H]2Cc3ccc(O)c4c3[C@@]1(CCN2CC1CC1)[C@H]5O4
class 0

New cases:
Hi, sorry to bother you, what did the test record for C=CCN1C[C@H](C)N([C@H](c2ccc(C(=O)N(CC)CC)cc2)c2cccc(O)c2)C[C@H]1C ?
class 0

Identify the outcome logged in this assay for the compound shown: CC(C)Oc1ccccc1C(=O)Nc1ccccc1C(=O)Nc1cccc(S(=O)(=O)C(F)(F)F)c1
class 0

Hey, what did the test say about CCOC(=O)c1c(C)[nH]c2ccc3c(c12)CN1CCc2cc(OC)ccc2C1O3 (stereo not drawn) ?
class 0

Which outcome did this test record for the compound c1nc(CC2CCNCC2)c[nH]1 ?
class 0

Dear all, I need the recorded test outcome for Cc1nc(C(=O)N2CCC[C@H]2Cc2nnc(-c3ccccc3)o2)c(-c2ccccc2F)s1 , thank you.
class 0

Could you kindly confirm the outcome this assay logged for O=c1ccc2ccc(OCCCCN3CCN(c4cccc5sccc45)CC3)cc2[nH]1 ?
class 1

----------
- Experimental system: 5-hydroxytryptamine receptor 2A (Homo sapiens)
- Details: Compound concentration 10 µM; call rule not given here
Respond using exactly one of the listed classes: 1 (active), 0 (inactive)

Here's what some known entries look like.
I would be grateful if you could indicate the recorded call for CCCCN1CCC(COC(=O)c2cc(Cl)c(N)c3c2OCCO3)CC1 .
1

Assay result, entry CCOC(=O)c1c(C)[nH]c2ccc3c(c12)CN1CCc2cc(OC)ccc2C1O3 (stereo not given) — outcome?
0

What classification did Cc1ccc2c(c1)c1c(n2CCc2ccc(C)nc2)CCN(C)C1 end up with in this test?
1

Field: outcome | Entry: CN(C(=O)Cc1ccc(Cl)c(Cl)c1)C(CN1CCCC1)c1cccc(OCC(=O)O)c1 (stereo not given)
0

More entries:
# lookup: test call for CCCCCCCCCCCCCCCCOC[C@H](COP(=O)([O-])OCC[N+](C)(C)C)OC(C)=O
0

----------
- Experimental system: UniProt:P28566
- Sequence (P28566 whole entry): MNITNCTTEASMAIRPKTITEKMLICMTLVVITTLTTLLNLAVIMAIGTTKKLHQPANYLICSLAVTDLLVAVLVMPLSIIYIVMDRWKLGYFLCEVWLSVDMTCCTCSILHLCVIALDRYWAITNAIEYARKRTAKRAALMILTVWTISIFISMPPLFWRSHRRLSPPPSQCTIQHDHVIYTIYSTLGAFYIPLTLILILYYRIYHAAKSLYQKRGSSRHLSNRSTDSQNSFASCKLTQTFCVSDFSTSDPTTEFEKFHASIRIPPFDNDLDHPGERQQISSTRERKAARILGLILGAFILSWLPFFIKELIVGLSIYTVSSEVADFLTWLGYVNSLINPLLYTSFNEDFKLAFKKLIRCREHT
- Details: Compound concentration 10 µM
- Description: PDSP Primary Binding target: HTR1E - Compounds are tested at 10 uM concentration, plate are incubated at room temperature in the dark for 90 minutes. Reaction are stopped by vacuum filtration onto 0.3% polyethyleneimine soaked filter mats using Filtermate harvester. Scintilation cocktail is then melted onto microwave-dried filters on a hot plate and the radio activity is counted in Microbia counter.
Reported inhibition by item:
Write the answer as a number in %, unit excluded.

Look over these answered cases.
Look up inhibition with UniProt:P28566 for this compound: C[C@H](CO)Nc1nc(SCc2cccc(Cl)c2F)nc2[nH]c(=O)sc12
-4.99

Find inhibition (UniProt:P28566) for the entry c1ccc(N2CCN(Cc3nc4ccccc4[nH]3)CC2)nc1
6.29

Which inhibition is reported with UniProt:P28566 for this entry: Clc1ccc(CCCOCCCN2CCCCC2)cc1 ?
17.3

Further cases:
Return inhibition measured with UniProt:P28566 given this compound: N#Cc1c(N)nc(SCc2csc(-c3ccc(Cl)cc3)n2)c(C#N)c1-c1ccc(OCCO)cc1
-9.34

I'm curious: which inhibition was measured for COc1ccc(S(=O)(=O)c2cc(OC)ccc2S(=O)(=O)c2ccc([C@H](C)NS(C)(=O)=O)cc2)cc1 tested on UniProt:P28566?
-6.16

Requested read-out inhibition, target or system UniProt:P28566, entry NC[C@H](O)c1ccc(O)c(O)c1
1.24

Please tell me: inhibition of O=C(O)C1CN(Cc2ccc(OCc3ccc(Cl)c(Cl)c3)cc2)C1 , system UniProt:P28566?
-4

Recorded inhibition for CC(C)NC(=O)c1ccc(C#Cc2ccncc2)cn1 with UniProt:P28566, please?
-1.26

Reported inhibition for UniProt:P28566, given N=C(N)SCCc1c[nH]cn1 ?
26.2

Recall the recorded inhibition for CC1CCN(CC[C@H]2CCCN2S(=O)(=O)c2cccc(O)c2)CC1 with UniProt:P28566 and state it.
7.28

Request body: readout inhibition, system UniProt:P28566, query Cc1cccc([C@H](C)c2c[nH]cn2)c1C . Return the value.
-0.76

----------
- Experimental system: D(4) dopamine receptor (Homo sapiens) (UniProt P21917)
- Sequence (whole entry): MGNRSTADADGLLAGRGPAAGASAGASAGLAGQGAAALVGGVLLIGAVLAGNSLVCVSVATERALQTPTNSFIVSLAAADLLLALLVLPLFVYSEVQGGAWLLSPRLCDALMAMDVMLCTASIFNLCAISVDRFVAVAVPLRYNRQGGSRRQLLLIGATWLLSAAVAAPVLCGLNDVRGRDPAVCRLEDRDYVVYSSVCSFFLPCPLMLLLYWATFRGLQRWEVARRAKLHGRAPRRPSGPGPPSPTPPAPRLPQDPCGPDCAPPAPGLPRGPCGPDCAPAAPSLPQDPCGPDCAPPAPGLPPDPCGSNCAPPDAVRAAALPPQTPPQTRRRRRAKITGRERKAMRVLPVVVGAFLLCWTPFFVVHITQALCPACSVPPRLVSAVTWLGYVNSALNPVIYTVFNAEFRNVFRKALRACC
- Details: Compound concentration 10 µM; call rule not given here
The reply should be one of these categories: active, inactive

# outcome recorded in this test, key = Cc1cc(C)cc(-c2cnc3cc(Cl)c(-c4cccc(O)c4)cc3c2OCCCN)c1
inactive

Test call for this molecule, please: O=C(O)c1n[nH]c2c1C[C@H]1C[C@@H]21
inactive

What outcome does the record of this test show for O=C(Nc1ccc(Cl)cc1)Nc1cccc(-c2cccc(N3CCCC3)n2)c1 ?
inactive

Could you please tell me the result logged for CO[C@@H]1COCC[C@@H]1N[C@@H]1CC[C@@](C(=O)N2CCc3ncc(C(F)(F)F)cc3C2)(C(C)C)C1 in this assay?
inactive

// param item: Cc1nc(C#Cc2ccnc(Cl)c2)c(C)n1-c1ccc(OC(F)(F)F)cc1 ; yields the recorded call
inactive

---
What did the test return for COc1ccc2[nH]cc(CCNC(C)=O)c2c1 ?
inactive

Per the records of this test, what outcome belongs to C[C@@H](NCCc1ccc(O)cc1)[C@@H](O)c1ccc(O)cc1 (relative stereo) ?
inactive

Which outcome was entered for the molecule CCc1nn(CCCN2CCN(c3cccc(Cl)c3)CC2)c(=O)n1CCOc1ccccc1 in this test?
active

Given COc1ccc(Br)cc1S(=O)(=O)NC(=O)/C=C/c1ccccc1Cc1ccc2ccccc2c1 , state the outcome it received in this test.
inactive

Dear all, I need the recorded test outcome for Cc1cc([C@@H](C)Nc2cccc(-c3cc(C)c(C(=O)N[C@@H](C)C(=O)O)c(C)c3)c2)ccc1Cl , thank you.
inactive

Tell me the assay call for c1nc(CC2CCNCC2)c[nH]1 please.
inactive

Per the records of this test, what outcome belongs to Oc1ccc2c3c1O[C@H]1c4[nH]c5c(c4C[C@@]4(O)[C@@H](C2)N(CC2CC2)CC[C@]314)C[C@@]1(O)[C@H]2Cc3ccc(O)c4c3[C@@]1(CCN2CC1CC1)[C@H]5O4 ?
inactive

----------
- Experimental system: Muscarinic acetylcholine receptor M5 (Homo sapiens)
- Details: Compound concentration 10 µM
- Description: PDSP Primary Binding target: CHRM5 - Compounds are tested at 10 uM concentration, plate are incubated at room temperature in the dark for 90 minutes. Reaction are stopped by vacuum filtration onto 0.3% polyethyleneimine soaked filter mats using Filtermate harvester. Scintilation cocktail is then melted onto microwave-dried filters on a hot plate and the radio activity is counted in Microbia counter.
Reported values of inhibition for individual entries
Quick note: give the figure in %, leave out the unit.

The cases that follow already have their inhibition on record.
inhibition for NCCc1c[nH]c2ccc(C(N)=O)cc12 ?
8.53

For the compound shown here, c1ccc(N2CCN(Cc3nc4ccccc4[nH]3)CC2)nc1 , give the reported inhibition.
-1.59

Quick check: inhibition of Cc1cc(NC(=O)Nc2ccc(N(C)C)cc2)c2cc(F)cc(F)c2n1 ?
39.2

May I ask what inhibition has been recorded for C[C@@H](NCCCc1cccc(C(F)(F)F)c1)c1cccc2ccccc12 ?
7.94

Item COC1CCN(c2cccc(-c3cc(NC(C)=O)nc(-n4nc(C)cc4C)n3)n2)CC1 has what recorded inhibition?
-2.53

New cases:
Name the reported inhibition value associated with the compound Cc1cc(C)cc(-c2cnc3cc(Cl)c(-c4cccc(O)c4)cc3c2OCCCN)c1
3.7

May I ask what inhibition has been recorded for C[C@@H](NCCc1ccc(O)cc1)[C@@H](O)c1ccc(O)cc1 (relative stereo) ?
-3.49

GET /values?readout=inhibition&item= Cc1cc(NC(=O)NCCN2CCC(O)(Cc3ccccc3)CC2)c2ccccc2n1
44

Would you mind telling me what inhibition value was observed for Oc1ccc2c3c1O[C@H]1c4[nH]c5c(c4C[C@@]4(O)[C@@H](C2)N(CC2CC2)CC[C@]314)C[C@@]1(O)[C@H]2Cc3ccc(O)c4c3[C@@]1(CCN2CC1CC1)[C@H]5O4 ?
-0.25
